# Test system: DMS 114 small cell lung
# PROCEDURE TEXT: NCI tumour cell line growth inhibition, 48 h
TGI values for the compounds below.

COc1ccc(C2(Cl)C(Cl)(C(F)(F)F)C2(Cl)C(F)(F)F)cc1 (stereo not given) : 25 µM
CCOC(=O)C1CC(=O)C=C2CCCCC21 (stereo not given) : > 100 µM
N#CC(Sc1ccccc1)C(N)=O (stereo not given) : > 100 µM
O=C1/C(=C/c2ccccc2Cl)COc2ccc(Br)cc21 : > 100 µM
CC(C)N(C(=O)C12C3C4C5C3C1(C(=O)O)C5C42)C(C)C (stereo not given) : > 100 µM

Q. # input compound: N#C/C(c1nc2ccccc2[nH]1)=c1\s/c(=C/c2ccccc2)c(=O)n1-c1ccccc1 ; wanted: its TGI
A. > 100 µM

Q. Name the reported TGI value associated with the compound CC(=O)NC(CCCNC(=O)N(C)N=O)C(=O)NCc1ccccc1 (stereo not given)
A. > 100 µM

Q. Need TGI of O/N=C1/CCCC/C1=C\c1ccc(Cl)c(Cl)c1 , thanks.
A. 59.8 µM

Q. Which TGI value belongs to CC(=O)OCC12CC(CC1OC(C)=O)c1ccccc12 (stereo not given) ?
A. > 100 µM

Q. Given the entry COc1ccc2cc3c4cc(OC)c(OC)cc4ccn3c2c1 , report its measured TGI.
A. > 100 µM

---

# Tested on: SK-MEL-5 melanoma
# PROCEDURE TEXT: NCI tumour cell line growth inhibition, 48 h
# maps each entry to its TGI
The figure you give is taken to be in µM; do not add the unit.

// known answers, use as guide
C=C(CN(C)C)C(=O)c1ccccc1OC : 31.1
CC(C)C1=Cc2ccc3c(c2C(=O)C1=O)CCCC3 : 25.6
COc1ccc(-c2cnc(-c3ccc(OC)cc3)n2-c2cc(OC)c(OC)c(OC)c2)cc1 : 67.4

Q. # lookup: TGI of Oc1ccc(N=Nc2ccc(Br)cc2)c(O)c1
A. 21.6

Q. Please look up its TGI: COC(=O)c1c(O)ccc2c1c1c(n2CCc2ccc(OC)c(OC)c2)C(=O)c2ccccc2C1=O
A. 23.9

Q. Query (compound): COC(=O)CCc1n(Cc2ccc3ccccc3c2)c2ccccc2[n+]1Cc1ccc2ccccc2c1 ; field requested: TGI
A. 1.56

Q. Dear colleague, I am looking for the recorded TGI of the following compound: CCNCC(=O)Nc1ccc2c(c1)C(=O)c1ccc(NC(=O)CNCC)cc1C2=O
A. 59.3

---

In this section, each of the compounds is paired with its reported TGI.
# Test system: NCI-H23 lung
# PROCEDURE TEXT: NCI tumour cell line growth inhibition, 48 h

Q. Param item = O=S1Nc2cccc(C(F)(F)F)c2S1 (stereo not given) ; retrieve measured TGI.
A. > 100 µM

Q. Give the measured TGI of Cc1cc(C)c2c(=O)n(CC(O)CN(Cc3ccccc3)CC(O)Cn3sc4nc(C)cc(C)c4c3=O)sc2n1 (stereo not given) .
A. 33.4 µM

Q. Form field: reported TGI of c1cc[c]([Ge]([O]c2cccc3cccnc23)([c]2ccccc2)[c]2ccccc2)cc1
A. 8.16 µM

Q. Given the entry c1cc(OCCN2CCCC2)ccc1CNc1ccc2nc(CCC3CCCCC3)[nH]c2c1 , report its measured TGI.
A. 8.17 µM
